Consider the following compounds; for each one, report its IC50.
- Tested on: HIV ROJO
- procedureText: Anti-HIV assay in fresh human PBL (RT activity), Protocol D1
- protocolConditions: Human immunodeficiency virus 1, PBMC
One number for each entry, in µM.

# compound, systemUnderTest, IC50 [µM]
rows = [
    ("O=c1cc(-c2ccccc2)oc2ccc(O)cc12 [6-Hydroxyflavone, 6-hydroxyflavone]", "HIV ROJO", 41.8),
    ("COc1ccc([C@@H]2CC(=O)c3c(O)cc(O)cc3O2)cc1O [Hesperetin, hesperetin]", "HIV ROJO", 134),
]

Please find the next compound below.
Query: Please report the recorded IC50 for O=c1cc(-c2ccccc2)oc2ccccc12 [Flavone, flavone] .
Result: 86.6

###

- procedureText: in vitro
- protocolConditions: dog
readout: CC50

Query: Please report the recorded CC50 for COc1cc2oc(-c3ccc(O)c(O)c3)cc(=O)c2c(O)c1OC [Cirsiliol, 6,7′-dimethoxy-5,3′,4′-trihydroxyflavone] .
Result: < 6.3 µM

###

- Tested on: HIV Merck 1022-48
- procedureText: Anti-HIV assay in fresh human PBL (RT activity), Protocol D1
- Type: cell-based
- protocolConditions: Human immunodeficiency virus 1, PBMC
readout: IC50 (µM)
Give bare numbers, in µM.

Query: Please report the recorded IC50 for COc1ccc(-c2cc(=O)c3c(OC)c(OC)c(OC)c(OC)c3o2)cc1 .
Result: 20.8

###

- Tested on: rhinovirus 14
- procedureText: Anti-picornaviral virus yield assay, Protocol B
- Assay type: cell-based, Rhinovirus type 14
- protocolConditions: Enterovirus
pIC50: −log10 of the molar value.
readout: pIC50

Query: Please report the recorded pIC50 for COc1cc2oc(-c3ccc(O)c(O)c3)cc(=O)c2c(O)c1OC [Cirsiliol, 6,7′-dimethoxy-5,3′,4′-trihydroxyflavone] .
Result: ~5.52

Measured values drawn from patent US6555523B1 for this set.
